Origin of values: patent US4438131A

System: systolic blood pressure
Test: Antihypertensive action, spontaneously hypertensive rats (SHR), oral
Format: in vivo
Conditions: Rattus norvegicus, po; 2 hrs, SHR, peroral; read-out: Lowering of systolic blood pressure, ED 20%
recorded-endpoint: ED20 (mg/kg)
# number only, unit mg/kg dropped from output

// solved cases for ED20 follow
>>> df
                                   compound  recorded_endpoint  recorded_result
0  CCCCCCCCCCCCC(C#N)(CCCN(C)CCc1cccc(OC)c1)c1cc(OC)c(OC)c(OC)c1 (stereo not drawn)               ED20              3.7
1  COc1ccc(CCN(C)CCCC(C#N)(c2ccc(OC)c(OC)c2)C(C)C)cc1OC (stereo not drawn) [Verapamil, reference compound]               ED20             23.2
2  CCCCCCCCCCCCC(C#N)(CCCN(C)CCc1cccc(OC)c1)c1cccc(OC)c1 (stereo not drawn)               ED20             24.9
3  CCCCCCCCCCCC(C#N)(CCCN(C)CCc1cccc(OC)c1)c1cccc(OC)c1 (stereo not drawn)               ED20              6.8
4  CCCCCCCCCCCCC(C#N)(CCCN(C)CCc1cccc(OC)c1)c1ccc(OC)c(OC)c1 (stereo not drawn)               ED20              7.5

// next entry
Looking up CCCCCCCCCCCCC(C#N)(CCCN(C)CCc1ccc(SCC)cc1)c1cccc(OC)c1 (stereo not drawn) , I found its ED20 recorded as 0.3

###

Test system: systolic blood pressure
Experiment: Antihypertensive action, spontaneously hypertensive rats (SHR), oral
Type: in vivo
Details: Rattus norvegicus, po; 24 hrs, SHR, peroral; read-out: Lowering of systolic blood pressure, ED 20%
A collection of compounds and their measured ED20
# unit: mg/kg | format: bare number

As a guide, the following entries are already answered.
                                   compound  recorded_result
0  CCCCCCCCCCCCC(C#N)(CCCN(C)CCc1cccc(OC)c1)c1ccc(OC)c(OC)c1 (centres unmarked)             46.4
1  CCCCCCCCCCCC(C#N)(CCCN(C)CCc1cccc(OC)c1)c1cccc(OC)c1 (centres unmarked)             46.4
2  CCCCCCCCCCCCC(C#N)(CCCN(C)CCc1cccc(OC)c1)c1cccc(OC)c1 (centres unmarked)             18.7
3  CCCCCCCCCCCCC(C#N)(CCCN(C)CCc1cccc(OC)c1)c1cc(OC)c(OC)c(OC)c1 (centres unmarked)             12.5

// field: ED20; key: CCCCCCCCCCCCC(C#N)(CCCN(C)CCc1ccc(SCC)cc1)c1cccc(OC)c1 (centres unmarked) ; value = 58.3
